Assay Overview: Henry solubility constant Hcp at 298.15 K (mol/(m3 Pa))
Conditions: reference: Hiatt (2013)
Value Type: Henry solubility constant Hcp
Give bare numbers.

See these solved cases before continuing.
molecule=Cc1ccccc1 value_type="Henry solubility constant Hcp" readout_number=0.0021
molecule=c1ccc2ccccc2c1 value_type="Henry solubility constant Hcp" readout_number=0.033
molecule=CI value_type="Henry solubility constant Hcp" readout_number=0.0018

Please report Henry solubility constant Hcp for every entry that follows.
1. Clc1cccc(Cl)c1
2. CC(C)(Cl)Cl
3. CCCc1ccccc1
4. BrC(Br)Br

RESULT:
0.0052
0.00044
0.0019
0.022

Please report Henry solubility constant Hcp for every entry that follows.
1. CCCCc1ccccc1
2. Cc1cccc2ccccc12
3. Clc1cccc(Cl)c1Cl
4. ClCc1ccccc1CCl
5. CBr

RESULT:
[0.002, 0.044, 0.015, 0.1, 0.0013]

Please report Henry solubility constant Hcp for every entry that follows.
1. CC(C)(C)c1ccccc1
2. [2H]C([2H])([2H])C1([2H])C([2H])([2H])C([2H])([2H])C([2H])([2H])C([2H])([2H])C1([2H])[2H]
3. [2H]C([2H])(Cl)Cl [dichloromethane-d2]
4. [2H]C([2H])([2H])C([2H])([2H])OC([2H])([2H])C([2H])([2H])[2H]
5. c1ccccc1
6. CCCCC(C)=O
7. CC#N

RESULT:
1. 0.0016
2. 0.00031
3. 0.0038
4. 0.013
5. 0.0018
6. 0.15
7. 0.6

Please report Henry solubility constant Hcp for every entry that follows.
1. C=CCCl
2. CCO[13C](C)=O [ethyl ethanoate-1-13C]
3. Fc1c(F)c(F)c(-c2c(F)c(F)c(F)c(F)c2F)c(F)c1F
4. C=Cc1ccccc1
5. [2H]c1c([2H])c([2H])c(C([2H])([2H])[2H])c([2H])c1[2H]

RESULT:
[0.0013, 0.071, 0.0067, 0.0044, 0.002]

* * *

Assay Overview: Henry solubility constant Hcp at 298.15 K (mol/(m3 Pa))
Conditions: reference: Hiatt (2013)
So I've got a bunch of molecules here, and I need their Henry solubility constant Hcp values.
Answers are plain numbers.

molecule="[2H]c1c([2H])c([2H])c([2H])c([2H])c1[2H] [benzene-d6]" value_type="Henry solubility constant Hcp" readout_number=0.0018
molecule="C=C(C)C(=O)OC [methyl methacrylate]" value_type="Henry solubility constant Hcp" readout_number=0.043
molecule="ClCC(Cl)CCl [1,2,3-trichloropropane]" value_type="Henry solubility constant Hcp" readout_number=0.042

Please report Henry solubility constant Hcp for every entry that follows.
1. CC(=O)c1ccccc1 [1-phenylethanone]
2. CC(C)O [2-propanol]
3. C=C(Cl)Cl [1,1-dichloroethene]
4. ClC/C=C/CCl [(E)-1,4-dichloro-2-butene]
5. [2H]c1c([2H])c([2H])c2c([2H])c([2H])c([2H])c([2H])c2c1[2H] [naphthalene-d8]

RESULT:
1: 0.97; 2: 1.1; 3: 0.00041; 4: 0.035; 5: 0.035

Please report Henry solubility constant Hcp for every entry that follows.
1. Cc1cc(C)cc(C)c1 [1,3,5-trimethylbenzene]
2. Cc1ccccc1C [1,2-dimethylbenzene]
3. Fc1ccccc1 [fluorobenzene]
4. COCCO [2-methoxyethanol]
5. S=C=S [carbon disulfide]
6. Fc1c(F)c(F)c(F)c(F)c1F [hexafluorobenzene]

RESULT:
1: 0.0023; 2: 0.0032; 3: 0.0016; 4: 4.4; 5: 0.00057; 6: 0.00055

Please report Henry solubility constant Hcp for every entry that follows.
1. ClC=C(Cl)Cl [trichloroethene]
2. ClC(Cl)C(Cl)(Cl)Cl [pentachloroethane]

RESULT:
[0.0012, 0.0059]

Please report Henry solubility constant Hcp for every entry that follows.
1. CCC(C)c1ccccc1 (centres undefined) [(1-methylpropyl)-benzene]
2. CC(Cl)(Cl)Cl [1,1,1-trichloroethane]
3. Cc1ccc2ccccc2c1 [2-methylnaphthalene]

RESULT:
0.0013
0.00069
0.035

* * *

Assay Overview: Henry solubility constant Hcp at 298.15 K (mol/(m3 Pa))
Conditions: reference: Hiatt (2013)
Is Henry solubility constant Hcp at least 0.003? Then 1. If not, 0.

Solved entries (count: 5):
compound=ClCCl discrete_label=1
compound=CC(=O)CC(C)C discrete_label=1
compound="Cl/C=C\\CCl [cis-1,3-dichloropropene]" discrete_label=1
compound=Cc1ccc(Cl)cc1 discrete_label=1
compound=ClCCCCl discrete_label=1

QUERY: Does the compound `[2H]C([2H])([2H])C(=O)C([2H])([2H])CCC` have recorded Henry solubility constant Hcp that is 0.003 or more?
RESULT: 1

QUERY: Does the compound `CC1CCCCC1` have recorded Henry solubility constant Hcp that is 0.003 or more?
RESULT: 0

QUERY: Does the compound `Clc1ccccc1` have recorded Henry solubility constant Hcp that is 0.003 or more?
RESULT: 1

QUERY: Does the compound `Cc1cc(C(C)(C)C)cc(C(C)(C)C)c1` have recorded Henry solubility constant Hcp that is 0.003 or more?
RESULT: 1

QUERY: Does the compound Cl/C=C/CCl [trans-1,3-dichloropropene] have recorded Henry solubility constant Hcp that is 0.003 or more?
RESULT: 1

QUERY: Does the compound `ClCc1ccccc1` have recorded Henry solubility constant Hcp that is 0.003 or more?
RESULT: 1

QUERY: Does the compound `CCOCC` have recorded Henry solubility constant Hcp that is 0.003 or more?
RESULT: 1

QUERY: Does the compound `Cc1cc(Br)cc(Br)c1` have recorded Henry solubility constant Hcp that is 0.003 or more?
RESULT: 1

QUERY: Does the compound `C=CCl` have recorded Henry solubility constant Hcp that is 0.003 or more?
RESULT: 0

QUERY: Does the compound `FC(F)(Cl)Cl` have recorded Henry solubility constant Hcp that is 0.003 or more?
RESULT: 0

QUERY: Does the compound `CCCl` have recorded Henry solubility constant Hcp that is 0.003 or more?
RESULT: 0

QUERY: Does the compound `[2H]C([2H])(Cl)C([2H])(Cl)Cl` have recorded Henry solubility constant Hcp that is 0.003 or more?
RESULT: 1

* * *

Assay Overview: Henry solubility constant Hcp at 298.15 K (mol/(m3 Pa))
Conditions: reference: Hiatt (2013)
So I've got a bunch of compounds here, and I need their Henry solubility constant Hcp values.
One number for each entry.

See these solved cases before continuing.
smiles_record=[2H]c1c([2H])c([2H])c(C([2H])([2H])[2H])c(C([2H])([2H])[2H])c1[2H] value_type="Henry solubility constant Hcp" readout_number=0.003
smiles_record=O=[N+]([O-])c1ccccc1 value_type="Henry solubility constant Hcp" readout_number=0.64
smiles_record=[2H]C([2H])=C([2H])Cl value_type="Henry solubility constant Hcp" readout_number=0.00038
smiles_record=CCc1ccccc1 value_type="Henry solubility constant Hcp" readout_number=0.002
smiles_record=CC(C)c1ccccc1 value_type="Henry solubility constant Hcp" readout_number=0.0014

Now for the compound whose Henry solubility constant Hcp we want.
QUERY: # lookup: Henry solubility constant Hcp of `Cc1ccc(C)c(C)c1`
RESULT: 0.0032
